Target: RXRβ (UniProt P28704)
Sequence (P28704 1-520): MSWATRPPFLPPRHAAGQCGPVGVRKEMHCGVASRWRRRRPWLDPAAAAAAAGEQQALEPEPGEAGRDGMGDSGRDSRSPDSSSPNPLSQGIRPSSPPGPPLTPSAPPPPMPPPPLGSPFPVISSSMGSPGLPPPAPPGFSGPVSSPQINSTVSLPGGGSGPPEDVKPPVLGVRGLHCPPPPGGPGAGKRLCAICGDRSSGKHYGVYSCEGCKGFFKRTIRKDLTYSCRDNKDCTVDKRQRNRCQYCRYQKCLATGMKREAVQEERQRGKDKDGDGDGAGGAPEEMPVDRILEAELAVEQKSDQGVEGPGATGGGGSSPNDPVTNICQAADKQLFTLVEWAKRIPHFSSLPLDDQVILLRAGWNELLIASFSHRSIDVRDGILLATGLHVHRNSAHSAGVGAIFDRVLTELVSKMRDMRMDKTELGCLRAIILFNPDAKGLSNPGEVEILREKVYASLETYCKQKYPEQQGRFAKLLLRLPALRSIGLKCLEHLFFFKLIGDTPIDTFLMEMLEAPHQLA
Assay: holoreceptor transactivation assay, RXRβ
Assay type: cell-based
Settings: percentage compared to the standard compound
measurement-type: RXR Trans. efficacy (number in parentheses) β (%)

CC/C(=C(F)/C=C/C(C)=C/C(=O)O)c1cc2c(c(Cl)c1OC)OC(C)(C)C=C2C(C)C ... 85

[1] CCOc1cc2c(cc1\C(=C/C=C/C(C)=C/C(=O)O)CC)C(C(C)(C)C)=CCC2(C)C
[2] COc1cc2c(cc1\C(C)=C(F)/C=C/C(C)=C/C(=O)O)C(C(C)C)=CC(C)(C)O2
[3] CCOc1c(\C(C)=C(F)/C=C/C(C)=C/C(=O)O)cc2c(c1Cl)OC(C)(C)C=C2C(C)C
Please order the records by their reported RXR Trans. efficacy (number in parentheses) β, lowest number first. List each label, following the requested order.
1, 3, 2

====

Target: RXRγ (UniProt P28705)
Experiment: holoreceptor transactivation assay, RXRγ
Conditions: holoreceptor transactivation; read-out: RXR Trans. EC50 γ
measurement-type: EC50 (nM)

# annotated cases, reported EC50 shown
COc1cc2c(cc1\C(C)=C(F)/C=C/C(C)=C/C(=O)O)C(C(C)(C)C)=CC(C)(C)O2 ... 9
CCOc1c(\C(CC)=C(F)/C=C/C(C)=C/C(=O)O)cc2c(c1Cl)OC(C)(C)C=C2C(C)C ... 6
CCOc1c(\C(C)=C(F)/C=C/C(C)=C/C(=O)O)cc2c(c1Br)C(C)(C)CC=C2C(C)C ... 0.6
CCOc1cc2c(cc1\C(C)=C(F)/C=C/C(C)=C/C(=O)O)C=CCC2(C)C ... 51

[A] CCOc1cc2c(cc1\C(CC)=C(F)/C=C/C(C)=C/C(=O)O)C=CCC2(C)C
[B] CCOc1cc2c(cc1\C(C)=C(F)/C=C/C(C)=C/C(=O)O)C(C(C)C)=CCC2(C)C
[C] CC(/C=C/C(F)=C(/C)c1cc2c(c(Cl)c1OC(C)C)OC(C)(C)C=C2C(C)C)=C\C(=O)O
[D] CCOc1c(\C(C)=C(F)/C=C/C(C)=C/C(=O)O)cc2c(c1Cl)C(C)(C)CC=C2C(C)C
Please order the records by their reported EC50, lowest number first. List each label, following the requested order.
D, B, A, C
(D: 0.2 nM, B: 2 nM, A: 41 nM, C: 114 nM)

[a] CCOc1c(\C(CC)=C(F)/C=C/C(C)=C/C(=O)O)cc2c(c1Br)C(C)(C)CC=C2C(C)C
[b] CC/C(=C(F)/C=C/C(C)=C/C(=O)O)c1cc2c(c(Cl)c1OC)OC(C)(C)C=C2C(C)C
Looking only at measured EC50, which entry is lower, a or b ? Mark your selection by writing its label.
b

[A] CCOc1c(\C(CC)=C(F)/C=C/C(C)=C/C(=O)O)cc2c(c1Cl)C(C)(C)CC=C2C(C)C
[B] CCOc1cc2c(cc1\C(C)=C(F)/C=C/C(C)=C/C(=O)O)C(C)=CCC2(C)C
Of the two listed items, A and B , which carries the larger EC50 figure? Mark your selection by writing its label.
B
(B: 3 nM, A: 0.3 nM)

====

Molecular target: RXRα (Homo sapiens)
Construct: expressed in transfected cells
Sequence (P19793 whole entry): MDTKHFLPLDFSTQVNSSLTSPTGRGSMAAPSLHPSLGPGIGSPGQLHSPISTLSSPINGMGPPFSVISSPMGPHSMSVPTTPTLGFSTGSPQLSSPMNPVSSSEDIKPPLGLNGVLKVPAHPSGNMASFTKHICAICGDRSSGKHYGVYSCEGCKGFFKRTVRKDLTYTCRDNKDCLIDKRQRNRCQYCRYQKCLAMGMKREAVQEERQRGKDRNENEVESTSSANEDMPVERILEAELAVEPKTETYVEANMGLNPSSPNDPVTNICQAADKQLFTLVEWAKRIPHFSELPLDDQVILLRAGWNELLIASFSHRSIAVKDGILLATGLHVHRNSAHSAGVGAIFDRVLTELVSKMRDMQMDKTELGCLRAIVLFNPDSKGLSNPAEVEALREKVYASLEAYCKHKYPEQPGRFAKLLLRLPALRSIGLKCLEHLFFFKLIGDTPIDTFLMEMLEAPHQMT
Assay: holoreceptor transactivation assay, RXRα
Format: cell-based
Details: percentage compared to the standard compound; read-out: RXR Trans. efficacy (number in parentheses) α
measurement-type: Emax (%)

# annotated cases, reported Emax shown
CC/C(=C(F)/C=C/C(C)=C/C(=O)O)c1cc2c(cc1OC)OC(C)(C)C=C2C ... 99
COc1c(\C(C)=C/C=C/C(C)=C/C(=O)O)cc2c(c1Cl)OC(C)(C)C=C2C(C)C ... 93
COc1cc2c(cc1\C(C)=C/C=C/C(C)=C/C(=O)O)C(C(C)C)=CC(C)(C)O2 ... 89

[A] CCC1=CC(C)(C)Oc2cc(OC)c(\C(C)=C/C=C/C(C)=C/C(=O)O)cc21
[B] CCOc1cc2c(cc1\C(=C/C=C/C(C)=C/C(=O)O)CC)C(C(C)(C)C)=CCC2(C)C
Looking only at measured Emax, which entry is lower, A or B ? Mark your selection by writing its label.
B

[a] CC(/C=C/C(F)=C(/C)c1cc2c(c(Br)c1OC(C)C)C(C)(C)CC=C2C(C)C)=C\C(=O)O
[b] CCOc1c(\C(C)=C(F)/C=C/C(C)=C/C(=O)O)cc2c(c1Cl)OC(C)(C)C=C2C(C)C
Looking only at measured Emax, which entry is lower, a or b ? Mark your selection by writing its label.
a

[1] CCOc1c(\C(CC)=C(F)/C=C/C(C)=C/C(=O)O)cc2c(c1Cl)OC(C)(C)C=C2C(C)C
[2] CCOc1cc2c(cc1\C(C)=C(F)/C=C/C(C)=C/C(=O)O)C=CCC2(C)C
Looking only at measured Emax, which entry is lower, 1 or 2 ? Mark your selection by writing its label.
1

[P] CCOc1c(\C(=C/C=C/C(C)=C/C(=O)O)CC)cc2c(c1Cl)OC(C)(C)C=C2C(C)C
[Q] CC/C(=C(F)/C=C/C(C)=C/C(=O)O)c1cc2c(c(Cl)c1OC)OC(C)(C)C=C2C(C)C
Looking only at measured Emax, which entry is lower, P or Q ? Mark your selection by writing its label.
P

====

Molecular target: RARα (Homo sapiens)
Sequence (P10276 1-462): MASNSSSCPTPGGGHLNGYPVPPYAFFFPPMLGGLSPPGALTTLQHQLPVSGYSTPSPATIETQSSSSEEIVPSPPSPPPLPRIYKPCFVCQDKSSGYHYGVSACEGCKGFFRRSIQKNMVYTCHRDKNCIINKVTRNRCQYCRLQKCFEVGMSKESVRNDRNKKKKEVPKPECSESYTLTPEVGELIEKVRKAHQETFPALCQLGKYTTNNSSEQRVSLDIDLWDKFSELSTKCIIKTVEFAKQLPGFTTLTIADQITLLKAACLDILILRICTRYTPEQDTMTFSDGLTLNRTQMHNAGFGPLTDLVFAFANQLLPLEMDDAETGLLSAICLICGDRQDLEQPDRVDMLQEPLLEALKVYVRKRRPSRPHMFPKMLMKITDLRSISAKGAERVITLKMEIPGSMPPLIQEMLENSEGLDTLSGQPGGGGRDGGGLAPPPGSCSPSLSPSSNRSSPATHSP
Test: ligand binding assay, RARα
Details: Table 9 (Formula F); read-out: RAR α Kd
measurement-type: Kd (nM)

# annotated cases, reported Kd shown
CCOc1c(\C(CC)=C(F)/C=C/C(C)=C/C(=O)O)cc2c(c1Cl)C(C)(C)CC=C2C(C)C ... 9.9
CCOc1c(\C(C)=C(F)/C=C/C(C)=C/C(=O)O)cc2c(c1Cl)C(C)(C)CC=C2C(C)C ... 60

[1] CC(/C=C/C(F)=C(/C)c1cc2c(c(Br)c1OC(C)C)C(C)(C)CC=C2C(C)C)=C\C(=O)O
[2] CCOc1c(\C(CC)=C(F)/C=C/C(C)=C/C(=O)O)cc2c(c1Br)C(C)(C)CC=C2C(C)C
[3] CCOc1c(\C(C)=C(F)/C=C/C(C)=C/C(=O)O)cc2c(c1Br)C(C)(C)CC=C2C(C)C
Please order the records by their reported Kd, lowest number first. List each label, following the requested order.
2, 3, 1
(2: 12 nM, 3: 70 nM, 1: 141 nM)

====

Target: RARα (Homo sapiens, UniProt P10276)
Experiment: chimeric receptor transactivation assay, RARα
Assay type: cell-based
Conditions: percentage compared to the standard compound; read-out: RAR Trans. efficacy (number in parentheses) α
measurement-type: Emax (%)

# annotated cases, reported Emax shown
CCCOc1cc2c(cc1\C(C)=C(F)/C=C/C(C)=C/C(=O)O)C(c1ccccc1)=CC(C)(C)O2 ... 25
CCOc1c(\C(=C(F)/C=C/C(C)=C/C(=O)O)C(C)C)cc2c(c1Br)C(C)(C)CC=C2C(C)C ... 13
CCOc1cc2c(cc1\C(C)=C(F)/C=C/C(C)=C/C(=O)O)C(c1ccccc1)=CC(C)(C)O2 ... 26
CC/C(=C(F)/C=C/C(C)=C/C(=O)O)c1cc2c(cc1OC)OC(C)(C)C=C2C(C)C ... 8
COc1cc2c(cc1\C(C)=C/C=C/C(C)=C/C(=O)O)C(C(C)C)=CC(C)(C)O2 ... 5
CCOc1c(\C(CC)=C(F)/C=C/C(C)=C/C(=O)O)cc2c(c1Cl)C(C)(C)CC=C2C(C)C ... 8

[A] CCOc1cc2c(cc1\C(C)=C/C=C/C(C)=C/C(=O)O)C(CC)=CC(C)(C)O2
[B] CCOc1cc2c(cc1\C(CC)=C(F)/C=C/C(C)=C/C(=O)O)C(CC)=CCC2(C)C
Of the two listed items, A and B , which carries the larger Emax figure? Mark your selection by writing its label.
B
(B: 10%, A: 6%)
